- assayed-target: p38 MAPK (Homo sapiens)
- Sequence (Q16539 whole entry): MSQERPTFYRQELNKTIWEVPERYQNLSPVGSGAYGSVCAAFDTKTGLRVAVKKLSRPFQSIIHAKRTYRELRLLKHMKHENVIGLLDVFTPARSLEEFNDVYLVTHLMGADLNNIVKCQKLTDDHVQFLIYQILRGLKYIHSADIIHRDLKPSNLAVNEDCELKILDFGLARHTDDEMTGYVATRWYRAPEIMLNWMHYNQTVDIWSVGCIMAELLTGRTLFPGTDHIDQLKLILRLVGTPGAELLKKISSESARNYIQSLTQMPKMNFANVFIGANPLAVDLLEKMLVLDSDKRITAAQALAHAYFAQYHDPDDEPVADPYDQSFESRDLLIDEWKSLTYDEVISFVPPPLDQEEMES
- assay-overview: Inhibition of p38 MAPK
attribute-measured: EC50 (µM)
Number only, in µM; omit the unit.

-- ask Please look up its EC50: `C[C@H](NCCc1cc(F)c(-n2c(N)c(C(=O)c3ccc(F)cc3F)ccc2=O)c(F)c1)C(=O)OC(C)(C)C`
-- reply 0.012
